tested on: IRAK1; details: concentration: 1 μM, replicates: in singlicate; n = 1;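 further: KINOMEscan kinase panel screen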
Kindly supply the reported %Inh values for the records listed here.
Lab book: enter the figure in %, no units written.

Please report %Inh with IRAK1 for item `COc1ccc(NC(=O)c2ccc(-c3cc(-c4nnc(C)o4)ccc3C)cc2)cc1` . 37

Please report %Inh with IRAK1 for item `COC(=O)c1cccc(NC(=O)NCCNc2ccnc(Nc3ccc(F)cc3)n2)c1` . 13

Please report %Inh with IRAK1 for item `CCc1nc(-c2cccc(N(C)S(=O)(=O)c3ccccc3)c2)c(-c2ccnc(Nc3ccc(N4CCN(C(C)=O)CC4)nc3)n2)s1` . 11

Please report %Inh with IRAK1 for item `Nc1n[nH]c2nnc(-c3ccccc3)cc12` . 22

---

tested on: EPHB6; conditions: concentration: 1 μM, replicates: in singlicate; n = 1
Kindly supply the reported %Inh values for the records listed here.
Lab book: enter the figure in %, no units written.

Complete the entry with %Inh for Cl.Cn1ccc(-c2cccc(Nc3ccnc4cc(-c5nccs5)ccc34)c2)n1 [GW525701] 94.2

Complete the entry with %Inh for CC(C)(C)c1ccc(-n2cnc3c(N)ncnc32)cc1 [SKF-97263] 9

Complete the entry with %Inh for `Clc1cc(Nc2ncnc3cc[nH]c23)ccc1OCc1ccccn1` 35

Complete the entry with %Inh for FC(F)(F)c1ccc(-c2nn3ncccc3c2-c2ccnc(Nc3cccc(C(F)(F)F)c3)n2)cc1 [GW828205] 0

Complete the entry with %Inh for O=C(Nc1n[nH]c2nc(-c3ccco3)c(Br)cc12)c1ccc(CN2CCCC2)cc1.O=C(O)[C@H](O)[C@@H](O)C(=O)O [SB-742352] 95.7

Complete the entry with %Inh for `OCCOCCn1ccc2ncnc(Nc3ccc(Oc4cccc(Cl)c4)c(Cl)c3)c21` 2

Complete the entry with %Inh for O=c1cc(N2CCOCC2)nc2n(Cc3cccc(Cl)c3)ccn12 [GSK2296823] 56

Complete the entry with %Inh for CC(=O)Nc1n[nH]c2ncc(-c3ccccc3)cc12 [SB-548492] 36

Complete the entry with %Inh for Nc1nc(-c2ccc3c(N)n[nH]c3c2)cc(N2CCCCC2)n1 [GSK2228768] 0

Complete the entry with %Inh for Nc1nc(-c2ccccn2)c(-c2ccnc3ccccc23)s1 [GW548057] 27

Complete the entry with %Inh for CN1CCC(n2cnc(-c3ccc(F)cc3)c2-c2ccnc(NC3CCNCC3)n2)CC1 [SB-229482] 8

Complete the entry with %Inh for COC(=O)c1cccc(NC(=O)NCCNc2ccnc(Nc3ccc(F)cc3)n2)c1 [GSK1379883] 4

Complete the entry with %Inh for COc1cc2c(Nc3cccc(NC(=O)c4ccccc4)c3)ncnc2cc1OCCCN1CCOCC1 [GSK223810] 60

Complete the entry with %Inh for Fc1ccc(Nc2nccc(-c3c(-c4ccc(Cl)cc4)nn4ncccc34)n2)cc1F [GW829058] 23

Complete the entry with %Inh for CC(C)N1CCC(n2cnc(-c3ccc(F)cc3)c2-c2ccnc(N)n2)CC1 [SB-223132] 0

Complete the entry with %Inh for Cc1ccc(NC(=O)c2cccc(C#N)c2)cc1-c1ccc(C(=O)Nc2ccncc2)cc1 [GSK1398463] 2

Complete the entry with %Inh for Cl.c1ccc(Cn2ccc3cc(Nc4ncnc5ccccc45)ccc32)cc1 [GW275568] 33

Complete the entry with %Inh for Nc1nc(-c2ccc3c(N)n[nH]c3c2)cc(N2CCC[C@@H](C(=O)Nc3ccccc3)C2)n1.O=C(O)C(F)(F)F.O=C(O)C(F)(F)F [GSK2288359] 29

Complete the entry with %Inh for CCC(CC)(CC)n1cnc2c(N)ncnc21 [SKF-97620] 9

Complete the entry with %Inh for Cc1ccc(O)cc1Nc1cc(C(F)(F)F)nc2ccc(-c3ccncc3)cc12 [GW630823] 9

Complete the entry with %Inh for O=C(c1ccc(-c2cc(-c3c[nH]nc3-c3ccccn3)ccn2)cc1)N1CCCC1 [GW792479] 0

Complete the entry with %Inh for CCCc1ccc(S(=O)(=O)NC2CCN(c3ccnc(Nc4ccc(OC)cc4)n3)C2)cc1 (centres unmarked) [GSK1379737] 31

Complete the entry with %Inh for CS(=O)(=O)CCNCc1ccc(-c2ccc3ncnc(Nc4ccc(OCc5ccccc5)c(Cl)c4)c3c2)o1.Cl [GW574783] 28

Complete the entry with %Inh for COc1ccc(NC(=O)Nc2ccc(C)c(-c3ccc(C(=O)Nc4ccncc4)cc3)c2)cc1 [GSK1398475] 20

Complete the entry with %Inh for Cl.Cl.c1ccc(-c2cc3ccncc3cc2OC2CCNCC2)cc1 [GSK1122999] 11

Complete the entry with %Inh for COc1cc2ncnc(Nc3ccc(OCc4ccccc4Br)c(Cl)c3)c2cc1OC.Cl [GI261590] 26

Complete the entry with %Inh for O=C(Nc1ccccc1F)NC1CCN(c2ccnc(Nc3ccc(F)cc3)n2)C1 (centres unmarked) [GSK1379722] 17

Complete the entry with %Inh for FC(F)(F)c1ccc(-c2cc(-c3c[nH]nc3-c3ccccn3)ccn2)cc1 [GW599550] 37

Complete the entry with %Inh for Cl.c1ccc(Cn2ncc3cc(Nc4ncnc5ccccc45)ccc32)cc1 [GW273749] 31

Complete the entry with %Inh for COc1ccc(Nc2nccc(N3CCC(NC(=O)Nc4ccc5c(c4)OCO5)C3)n2)cc1 (centres unmarked) [GSK1379745] 47

Complete the entry with %Inh for Cc1ccc(C)c(NC(=O)NCCNc2ccnc(Nc3ccc(F)cc3)n2)c1 [GSK1379878] 11

Complete the entry with %Inh for CSc1nn2c(=O)cc(N3CCOCC3)nc2n1Cc1cccc(Cl)c1Cl [GSK2347225] 52

Complete the entry with %Inh for Cc1cccc(-c2nc(Nc3ccc4[nH]nnc4c3)c3ccccc3n2)n1 [GW867587] 0

Complete the entry with %Inh for `Fc1cccc(COc2ccc(Nc3ncnc4cc[nH]c34)cc2Cl)c1` 19

Complete the entry with %Inh for Nc1n[nH]c2nnc(-c3ccccc3)cc12 [SB-517389] 0
